experiment: Molar enthalpy of transition or fusion; conditions: Crystal; DSC
QUANTITY_KIND: Molar enthalpy of transition or fusion (kcal/mol)

INSERT INTO results (compound, measured_number) VALUES
  ('O=C1c2ccccc2C(=O)c2ccccc21 [9,10(9H,10H)-anthracenedione]', 8.68),
  ('O=C1c2ccccc2Cc2ccccc21 [9(10H)-anthracenone]', 5.35),
  ('O=c1c2ccccc2oc2ccccc12 [9H-xanthen-9-one]', 6.36),
  ('O=c1c2ccccc2sc2ccccc12 [thioxanthone]', 6.79);

---

details: Crystal; DTA
QUANTITY_KIND: Normal melting temperature (°C)

INSERT INTO results (compound, measured_number) VALUES
  ('O=c1c2ccccc2sc2ccccc12', 213.5),
  ('O=c1c2ccccc2oc2ccccc12', 175.2),
  ('O=C1c2ccccc2C(=O)c2ccccc21 [9,10(9H,10H)-anthracenedione]', 283.6),
  ('O=C1c2ccccc2Cc2ccccc21 [9(10H)-anthracenone]', 156.4);
